Where these numbers come from: ChEMBL document CHEMBL4513216

Test: Toxicity liver stage against HepG2, at 10uM
Format: cell-based
Design: test concentration 10 uM, cell line HepG2-A16-CD81EGFP
Conditions: human, HepG2-A16-CD81EGFP cells; read-out: INHIBITION
Please provide measured cytotoxicity at 10 µM for the entries that follow.
Answers are plain numbers, in %.

# example entries with known answers
In [3]: df
Out[3]:
                                   molecule  unit_annotation  value_measured
0  CCc1n[nH]c(C2CN(C(=O)c3ccnc(C4CC4)n3)CCO2)n1 (stereo not given)                %             2.4
1  Cc1ccc2c(c1)OC(C)(C)CC2NC(=O)C1CCN(S(C)(=O)=O)CC1 (stereo not given)                %            1.93
2  CC(C)[C@@H](C)NC1CCN(c2ccc(-n3ccnc3)cc2)CC1                %           0.487
3    O=C(c1c(O)cnc2ccccc12)N1CCN(CC(F)F)CC1                %           -2.22

We now examine a further molecule.
Answer with the recorded cytotoxicity at 10 µM of COCCN1CCOCC12CCN(c1ccc(C#N)cc1)CC2 only.
-2.51

----------
For each of the compounds below, state its cytotoxicity at 10 µM.
Assay: Toxicity liver stage against HepG2, at 10uM
Format: cell-based
Design: test concentration 10 uM, cell line HepG2-A16-CD81EGFP
Conditions: human, HepG2-A16-CD81EGFP cells; read-out: INHIBITION
One number for each entry, in %.

In [3]: df
Out[3]:
                                   compound          endpoint_name  value_measured
0  CN(C)c1ccccc1C(=O)N1CCCC(c2ccc(C(=O)O)cc2)C1 (configuration not stated)  cytotoxicity at 10 µM            16.2
1               Cc1cc(C(=O)N2CCCC2)ccc1NCCO  cytotoxicity at 10 µM           -3.87
2  Cc1cc(Nc2nc(C)cs2)nc(C2CCCCN2CCO)n1 (configuration not stated)  cytotoxicity at 10 µM             1.8

Record cytotoxicity at 10 µM per entry; entries follow.
1. O=C(C1CCCC1)N1CCO[C@@H]2CNC[C@@H]21
2. Cc1noc(C2CCCN(C(=O)c3cccc(Cl)c3)C2)n1 (configuration not stated)
3. CCc1nc(C2CCCN2C(=O)c2ccc3c(c2)[nH]c(=O)n3C)no1 (configuration not stated)
4. Cc1cnc(N(C)CCCc2cnn(C)c2)nc1N(C)C
5. CCCN(CCC)C(=O)c1cc(CN2CCC(O)CC2)on1
6. CC(C)Nc1nc2c(cc1C(=O)O)CCN(Cc1ccsc1)CC2
7. Cc1cc(C(=O)NCCc2cn3nc(C)sc3n2)c(C)o1
8. O=C(Cc1ccccc1O)Nc1ccc(N2CCCC2)nc1

8.34
-1.58
1.04
2.03
1.29
0.676
5.68
9.31

Report cytotoxicity at 10 µM for every entry below.
1. CCn1cnnc1CNC(=O)N1CCN(Cc2ccccc2)CC1
2. CCCN(Cc1nccn1C)C(=O)C(CC)Nc1cccc(OC)c1 (configuration not stated)
3. CC(C)NC(=O)c1cc2c(s1)CCN2C(=O)CN(C)C
4. O=C(NCCc1cccnc1)NC1CCOC2(CCCCC2)C1 (configuration not stated)
5. COC(C)(C)CC(C)NCc1nncn1C1CCCCC1 (configuration not stated)
6. O=C(CN1CCN(CC(O)C2CC2)CC1)NCc1ccccc1Cl (configuration not stated)
7. Cc1ccc(CNS(=O)(=O)CCCC#N)cc1F

1. -1.3
2. 0.417
3. 1.94
4. -16.3
5. -2.87
6. 5.23
7. -9.48

For each of the compounds below, state cytotoxicity at 10 µM.
1. O=C(CN1CCOC(c2ccc(Cl)c(Cl)c2)C1)NCc1ccco1 (configuration not stated)
2. Fc1ccccc1CN1C[C@@H]2CN(Cc3cccnc3)CCO[C@@H]2C1

1: -7.31; 2: 9.2

For each of the compounds below, note its cytotoxicity at 10 µM.
1. Cc1ccc2c(n1)N(Cc1cccnc1)CCN(C(=O)C1CCC1)C2
2. CNC(=O)NC(=O)C(C)N(C)CCCc1cc(-c2ccccc2)no1 (configuration not stated)
3. OCCN(Cc1ccccc1)Cc1ccsc1
4. O=C(Nc1ccc(-c2csnn2)cc1)N1CC[C@H](O)C1

[13.7, -11.6, 4.7, -4.62]

----------
Consider the following molecules; for each one, report its cytotoxicity at 10 µM.
Experiment: Toxicity liver stage against HepG2, at 10uM
Assay type: cell-based
Parameters: test concentration 10 uM, cell line HepG2-A16-CD81EGFP
Conditions: human, HepG2-A16-CD81EGFP cells; read-out: INHIBITION
Give bare numbers, in %.

Consider the following items and state reported cytotoxicity at 10 µM for each.
1. Cc1cc(CN2CCc3nn(C)c(=O)cc3C2)no1
2. CCCn1c(C)c(CC(=O)NC)c2c1CC(C)(C)CC2=O

1: -9.01; 2: -6.05

# map each molecule to its cytotoxicity at 10 µM
1. CCCn1cc(C(=O)NC2CCN(CC(=O)NC3CC3)CC2)c(C)n1
2. Cc1ccccc1CC1(CO)CCCN(c2ncncc2C(C)C)C1 (stereo not given)

1. 2.29
2. -22.2

Please look at the items below and tell me cytotoxicity at 10 µM for each one, in order.
1. CC(C)C(=O)N1CCN(CC(O)c2cc(Cl)ccc2Cl)CC1 (stereo not given)
2. CCn1cc(CN2CCCN(C(=O)c3sccc3OC)CC2)cn1
3. OC[C@H]1CN(Cc2c(Cl)cncc2Cl)C[C@H]1CN1CCCCCC1
4. CCn1ccnc1CN1CCN(c2nccc(OC)n2)CC1C (stereo not given)
5. COc1ccccc1CN1CCN(CCN2CCOC2=O)CC1

[3.41, -5.68, -112, -17.9, -11.2]

----------
Assay: Toxicity liver stage against HepG2, at 10uM
Assay type: cell-based
Parameters: test concentration 10 uM, cell line HepG2-A16-CD81EGFP
Conditions: human, HepG2-A16-CD81EGFP cells; read-out: INHIBITION
endpoint_name: cytotoxicity at 10 µM

Completed entries (count: 3):
In [3]: df
Out[3]:
                                   molecule  value_measured
0  CSc1ccccc1C(=O)N1CCOC(CCN(C)C)C1 (stereo unspecified)           7.46%
1     CCOc1cc(CNCc2cnc(C)cn2)c(Cl)cc1OC(C)C           4.86%
2  CC1CCCCN1C(=O)c1ccc2c(c1)OCCCO2 (stereo unspecified)           9.62%

Quick request: cytotoxicity at 10 µM for each listed item, please.
1. CN(Cc1ccoc1)C(=O)C1(Oc2ccc(Cl)cc2)CCNCC1
2. Cc1nnc([C@@H]2CC[C@@H]3[C@@H](CCN3S(C)(=O)=O)O2)o1

1: 5.73%; 2: -79.1%

Name the recorded cytotoxicity at 10 µM of the item CCn1cc(CN2CCCC(COc3ccccc3F)C2)cn1 (stereo unspecified) in your answer.
-47.7%

----------
Assay: Toxicity liver stage against HepG2, at 10uM
Format: cell-based
Set-up: test concentration 10 uM, cell line HepG2-A16-CD81EGFP
Conditions: human, HepG2-A16-CD81EGFP cells; read-out: INHIBITION
Kindly supply the reported cytotoxicity at 10 µM values for the records listed here.
Answers are plain numbers, in %.

Study these solved cases before continuing.
>>> print(df.to_string())
                                   molecule  value_measured
0    CC(C)c1nc(CN(C)Cc2cnc(N3CCOCC3)nc2)no1            10.1
1  CCOC(=O)[C@H]1[C@@H](O)C(=O)N(C)C12CCN(S(=O)(=O)CC)CC2           -6.06
2  CNC(=O)c1n[nH]c2c1C(c1cccc3c1OC(C)(C)C3)CC(=O)N2 (stereo unspecified)          0.0642
3  O=C1NCC2(CCCN(C(=O)Nc3ccc4occc4c3)CC2)O1 (stereo unspecified)            2.09
4        CCOCCCC(=O)NCc1ccnc(N2CCN(C)CC2)c1           -10.9
5  CC(C)n1cc(C(=O)NCCCn2ccnc2)c2n[nH]c(=O)c-2c1           -4.17
6  Cc1nn(C)c(Cl)c1C1CCCN1C(=O)c1ccoc1C (stereo unspecified)           -8.18
7         CC(=O)NCc1nn(C)c2c1CN(Cc1ccsc1)C2            -144

For every listed record, write down its cytotoxicity at 10 µM.
1. CC(C)NC(=O)NC[C@H]1OC[C@@H](NCc2ccc(S(C)(=O)=O)cc2)[C@@H]1O
2. NC(=O)NC(=O)CCN1CCN(CC2CC2)c2ccccc21
3. Cc1cc(C(=O)Nc2cnn(CC(F)(F)F)c2)nc(N(C)C)n1

1: 6.7; 2: 17.9; 3: -2.89
